Origin of measurements: PubChem BioAssay (EPA / NIEHS)

# Assay System: human Adenosine Transporter (Adot), SLC29A1 (gene 2030) (UniProt Q99808)
# Sequence (Q99808 whole entry, looked up): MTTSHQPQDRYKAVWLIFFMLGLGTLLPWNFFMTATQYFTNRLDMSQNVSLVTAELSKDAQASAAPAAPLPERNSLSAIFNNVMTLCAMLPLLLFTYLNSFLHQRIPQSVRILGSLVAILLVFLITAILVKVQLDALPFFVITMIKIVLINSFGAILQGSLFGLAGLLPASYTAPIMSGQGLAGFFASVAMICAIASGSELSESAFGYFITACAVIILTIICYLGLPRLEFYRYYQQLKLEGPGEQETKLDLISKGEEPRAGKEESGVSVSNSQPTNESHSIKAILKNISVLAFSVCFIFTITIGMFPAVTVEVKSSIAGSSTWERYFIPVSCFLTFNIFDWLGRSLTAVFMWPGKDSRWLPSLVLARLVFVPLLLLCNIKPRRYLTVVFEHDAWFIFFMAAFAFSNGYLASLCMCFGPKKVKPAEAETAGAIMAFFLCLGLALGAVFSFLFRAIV
# Assay Procedure: NVS_TR_hAdoT: NovaScreen (NVS) Transporter Assay for human Adenosine Transporter (Adot) (AID 2283368)
Results filed as inconclusive are left out. Activity calls are given as the source filed them. Rule for the calls: active = hit-call score of the fitted dose curve at least 0.9, where 1 is the maximum; inconclusive = response in the unintended direction; inactive = score below 0.9.
Catalogue of compounds with associated AC50
Readout: AC50

[
  {
    "Compound Structure String": "O=c1[nH]sc2ccccc12",
    "Reported Value": "17.2 µM (active)"
  },
  {
    "Compound Structure String": "CC/C(=C(/CC)c1ccc(O)cc1)c1ccc(O)cc1",
    "Reported Value": "17.6 µM (active)"
  },
  {
    "Compound Structure String": "CCCCCCCCOC(=O)c1cc(O)c(O)c(O)c1",
    "Reported Value": "22.2 µM (active)"
  },
  {
    "Compound Structure String": "O=C1c2ccccc2C(=O)N1CCc1noc(-c2ccc(CN3CCCCCC3)s2)n1",
    "Reported Value": "21.1 µM (active)"
  }
]
